- ASSAY_TARGET: T1, human C5a (human, UniProt P01031 678-751, biotinylated in the U937/C5aR ligand blocking assay (site not stated))
- T1 construct: also called human antigen; huC5a
- T1 sequence: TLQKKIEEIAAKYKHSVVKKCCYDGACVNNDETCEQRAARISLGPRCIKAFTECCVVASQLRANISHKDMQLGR
- EXPERIMENT: ligand blocking, flow cytometry: antibody titrated against 20 nM biotinylated human C5a binding to U937/C5aR cells, Experiment #1
PROPERTY_MEASURED: IC50 (nM)
Field format: number, assumed nM, no unit text.

-- ask State, in one line, measured IC50 of E54H (humanized anti-C5a IgG4 antibody) (antibody, V domains shown, Carries F29H and E54H in VH and Y96H in VL (Kabat) relative to 16D10) VH: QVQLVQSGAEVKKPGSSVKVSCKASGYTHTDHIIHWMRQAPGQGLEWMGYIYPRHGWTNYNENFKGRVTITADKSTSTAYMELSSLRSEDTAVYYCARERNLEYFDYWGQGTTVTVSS VL: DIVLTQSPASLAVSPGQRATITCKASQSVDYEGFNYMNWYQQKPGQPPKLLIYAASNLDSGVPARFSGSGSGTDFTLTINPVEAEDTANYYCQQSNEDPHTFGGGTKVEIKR
-- reply 2.57

-- ask Give IC50 for N97H (humanized anti-C5a IgG4 antibody) (antibody, V domains shown, Carries F29H and N97H in VH and Y96H in VL (Kabat)) VH: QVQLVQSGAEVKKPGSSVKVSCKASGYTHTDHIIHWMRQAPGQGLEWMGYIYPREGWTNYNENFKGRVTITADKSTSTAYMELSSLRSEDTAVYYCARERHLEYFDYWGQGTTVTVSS VL: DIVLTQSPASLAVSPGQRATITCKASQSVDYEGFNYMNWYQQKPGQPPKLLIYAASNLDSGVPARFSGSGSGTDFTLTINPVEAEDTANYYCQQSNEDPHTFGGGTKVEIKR
-- reply 4.71

-- ask Supply reported IC50 belonging to this binder: 16D10 (humanized anti-C5a IgG4 antibody) (antibody, V domains shown, also called WT (16D10); WT) VH: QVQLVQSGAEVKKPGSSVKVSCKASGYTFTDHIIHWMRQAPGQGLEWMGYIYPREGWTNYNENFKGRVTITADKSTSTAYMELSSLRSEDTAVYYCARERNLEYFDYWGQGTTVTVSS VL: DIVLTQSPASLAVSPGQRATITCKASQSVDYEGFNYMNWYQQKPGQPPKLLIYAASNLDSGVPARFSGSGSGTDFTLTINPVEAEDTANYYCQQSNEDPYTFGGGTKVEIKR
-- reply 2.03

-- ask Look up and report measured IC50 for this entry: N92H (humanized anti-C5a IgG4 antibody) (antibody, V domains shown, Carries F29H in VH and N92H and Y96H in VL (Kabat); also called N92H antibody) VH: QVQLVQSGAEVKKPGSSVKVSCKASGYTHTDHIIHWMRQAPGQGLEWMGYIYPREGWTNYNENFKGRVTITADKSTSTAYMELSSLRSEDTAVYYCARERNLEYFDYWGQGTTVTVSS VL: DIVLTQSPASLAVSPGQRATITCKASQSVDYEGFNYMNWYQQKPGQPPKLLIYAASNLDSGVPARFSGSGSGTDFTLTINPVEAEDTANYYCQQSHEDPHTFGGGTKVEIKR
-- reply 3.68

Data credit: patent US20240376189A1
